Where do these numbers come from? They come from patent US3954767A.

- TEST: Acute toxicity (LD50), mouse, oral, method of Reed and Muench
- Assay type: in vivo, mouse (albino)
- TEST CONDITIONS: mouse, in vivo, po; mouse female; read-out: LD50
MEASURE NAME: LD50 (mg/kg)
One number for each entry, in mg/kg.

Query: // query LD50 value for entry CC(C)(Oc1ccc(Cl)cc1)C(=O)Oc1ccc(OC(=O)C(C)(C)Oc2ccc(Cl)cc2)c(S(=O)(=O)O)c1
Result: 8700

====

Consider the following molecules; for each one, report its LD50.
- TEST: Acute toxicity (LD50), rat, oral, method of Reed and Muench
- Set-up: species or system rat (Sprague-Dawley)
- TEST CONDITIONS: in vivo, rat male

# SMILES, LD50
rows = [
    ("CC(C)(Oc1ccc(Cl)cc1)C(=O)Oc1ccc(OC(=O)C(C)(C)Oc2ccc(Cl)cc2)c(S(=O)(=O)O)c1", "11000 mg/kg"),
]

Query molecule follows.
Query: // query LD50 value for entry Cc1ccc(S(=O)(=O)Oc2ccc(O)c(S(=O)(=O)O)c2)cc1
Result: > 11900 mg/kg

====

- Tested on: rats treated with Triton WR-1339
- TEST: Hypolipemic action on the rat, Triton WR-1339 method
- Format: in vivo
- TEST CONDITIONS: Table VI; with respect to Triton WR-1339; 2 mMoles/Kg orally
Consider the following molecules; for each one, report its Percentage reduction of lipids: Cholesterol.
Numbers only, in %.

# MOLECULE, TARGET DESC, ASSAY RESULT
records = [
    ("O=C(Oc1ccc(OC(=O)c2ccccc2)c(S(=O)(=O)O)c1)c1ccccc1 [piperazine bis(2,5-dihydroxybenzene sulfonate dibenzoate)]", "rats treated with Triton WR-1339", 9),
]

For each of the items listed, what is its Percentage reduction of lipids: Cholesterol?
1. Cc1ccc(S(=O)(=O)Oc2ccc(O)c(S(=O)(=O)O)c2)cc1 [piperidine bis(2,5-dihydroxybenzenesulfonate monotosylate)]
2. Cc1ccc(S(=O)(=O)Oc2ccc(O)c(S(=O)(=O)O)c2)cc1 [piperazine 2,5-dihydroxybenzenesulfonate monotosylate]
3. O=C(Oc1ccc(OC(=O)c2ccccc2)c(S(=O)(=O)O)c1)c1ccccc1 [sodium 2,5-dihydroxybenzenesulfonate dibenzoate]
4. O=C(Oc1ccc(OC(=O)c2ccccc2)c(S(=O)(=O)O)c1)c1ccccc1 [piperazine 2,5-dihydroxybenzenesulfonate dibenzoate]
5. Cc1ccc(S(=O)(=O)Oc2ccc(O)c(S(=O)(=O)O)c2)cc1 [diethylamine-2,5-dihydroxybenzenesulfonate monotosylate]

Result:
1. 15
2. 18
3. 12
4. 13
5. 23

====

Consider the following molecules; for each one, report its LD50.
- TEST: Acute toxicity (LD50), rat, oral, method of Reed and Muench
- Set-up: species or system rat (Sprague-Dawley)
- TEST CONDITIONS: in vivo, rat female
Answers are plain numbers, in mg/kg.

# SMILES, VALUE UNIT, ASSAY RESULT
records = [
    ("Cc1ccc(S(=O)(=O)Oc2ccc(O)c(S(=O)(=O)O)c2)cc1", "mg/kg", 11900),
]

Query molecule follows.
Query: // query LD50 value for entry CC(C)(Oc1ccc(Cl)cc1)C(=O)Oc1ccc(OC(=O)C(C)(C)Oc2ccc(Cl)cc2)c(S(=O)(=O)O)c1
Result: 11700

====

- System: rats treated with Triton WR-1339
- TEST: Hypolipemic action on the rat, Triton WR-1339 method
- Type: in vivo
- TEST CONDITIONS: Table VI; with respect to Triton WR-1339; orally, 2 mMoles of R (p-chlorophenoxy isobutyric acid residue) per Kg
Counter-ions that a name gives are not always drawn.
MEASURE NAME: Percentage reduction of lipids: Triglycerides
Output should be the measured figure followed by the unit it is expressed in.

Use these answered entries as a reference point.
# MOLECULE, ASSAY RESULT
rows = [
    ("CC(C)(Oc1ccc(Cl)cc1)C(=O)Oc1ccc(OC(=O)C(C)(C)Oc2ccc(Cl)cc2)c(S(=O)(=O)O)c1 [calcium salt of di-O-(p-chloro phenoxy isobutyrate) of 2,5-d]", "33%"),
    ("CC(C)(Oc1ccc(Cl)cc1)C(=O)Oc1ccc(OC(=O)C(C)(C)Oc2ccc(Cl)cc2)c(S(=O)(=O)O)c1 [pyridine salt of di-O-(p-chloro phenoxy isobutyrate) of 2,5-]", "32%"),
]

For each of the items listed, what is its Percentage reduction of lipids: Triglycerides?
1. CC(C)(Oc1ccc(Cl)cc1)C(=O)Oc1ccc(OC(=O)C(C)(C)Oc2ccc(Cl)cc2)c(S(=O)(=O)O)c1 [piperazine di-salt of di-O-(p-chloro phenoxy isobutyrate) of]
2. CC(C)(Oc1ccc(Cl)cc1)C(=O)Oc1ccc(O)c(S(=O)(=O)O)c1 [magnesium salt of mono-O-(p-chloro phenoxy isobutyrate) of 2]
3. CC(C)(Oc1ccc(Cl)cc1)C(=O)Oc1ccc(OC(=O)C(C)(C)Oc2ccc(Cl)cc2)c(S(=O)(=O)O)c1 [piperazine mono-salt of di-O-(p-chloro phenoxy isobutyrate) ]
4. CC(C)(Oc1ccc(Cl)cc1)C(=O)Oc1ccc(O)cc1S(=O)(=O)O
5. CC(C)(Oc1ccc(Cl)cc1)C(=O)Oc1ccc(O)c(S(=O)(=O)O)c1 [pyridine 2,5-dihydroxybenzenesulfonate mono-p-chloro phenoxy]
6. CC(C)(Oc1ccc(Cl)cc1)C(=O)Oc1ccc(O)c(S(=O)(=O)O)c1 [mono-salt of piperazine of mono-O-(p-chloro phenoxy isobutyr]
7. CC(C)(Oc1ccc(Cl)cc1)C(=O)Oc1ccc(O)c(S(=O)(=O)O)c1 [calcium salt of mono-O-(p-chloro phenoxy isobutyrate) of 2,5]

Result:
["21%", "44%", "49%", "32%", "27%", "49%", "40%"]

For each of the items listed, what is its Percentage reduction of lipids: Triglycerides?
1. CC(C)(Oc1ccc(Cl)cc1)C(=O)Oc1ccc(O)c(S(=O)(=O)O)c1 [di-salt of piperazine of mono-O-(p-chloro phenoxy isobutyrat]
2. CC(C)(Oc1ccc(Cl)cc1)C(=O)Oc1ccc(OC(=O)C(C)(C)Oc2ccc(Cl)cc2)c(S(=O)(=O)O)c1 [magnesium salt of di-O-(p-chloro phenoxy isobutyrate) of 2,5]

Result:
["31%", "51%"]
